Origin of values: ChEMBL document CHEMBL1201862

- SYSTEM_UNDER_TEST: Estrogen receptor beta (Homo sapiens, UniProt Q92731)
- Sequence (Q92731 whole entry): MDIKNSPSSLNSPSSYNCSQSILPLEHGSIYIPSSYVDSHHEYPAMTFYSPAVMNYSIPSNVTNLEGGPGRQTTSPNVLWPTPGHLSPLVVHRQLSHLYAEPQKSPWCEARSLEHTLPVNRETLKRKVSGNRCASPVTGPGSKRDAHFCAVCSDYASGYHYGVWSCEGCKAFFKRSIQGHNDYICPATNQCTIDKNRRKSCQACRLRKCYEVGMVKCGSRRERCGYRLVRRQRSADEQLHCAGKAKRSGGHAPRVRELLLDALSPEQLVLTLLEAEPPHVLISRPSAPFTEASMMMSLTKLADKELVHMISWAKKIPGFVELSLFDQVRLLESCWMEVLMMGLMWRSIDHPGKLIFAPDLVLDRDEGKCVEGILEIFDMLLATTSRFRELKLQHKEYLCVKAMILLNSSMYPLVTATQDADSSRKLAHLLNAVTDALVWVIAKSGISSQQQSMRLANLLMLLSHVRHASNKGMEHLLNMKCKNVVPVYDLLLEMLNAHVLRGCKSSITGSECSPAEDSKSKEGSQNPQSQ
- MEASUREMENT_NOTES: blockers of SRC-3 recruitment to ERβ – biochemical, ELISA, streptavidin-HRP readout, orthogonal assay, confirmation (AID 1060)
VALUE_TYPE: IC50

1. CC(C)(C)c1nnc2sc(SC/C(O)=C(\C#N)c3nc4ccccc4[nH]3)nn2c1=O
40.6 µM (not active)
2. Cc1c(C(=O)OCc2ccccc2)[nH]c2c1C(=O)CC(c1ccco1)C2 (centres undefined)
9.51 µM (not active)
3. O=C(Cc1cccs1)Nc1ccc(-c2nnn(CC(=O)N3CCOCC3)n2)cc1
> 50 µM (not active)
4. N#CC1=C(N)OC2=C(CCC/C2=C/c2ccoc2)C1c1ccoc1 (centres undefined)
3.99 µM (not active)

---

- SYSTEM_UNDER_TEST: Nucleotide-binding oligomerization domain-containing protein 1 (Homo sapiens, UniProt Q9Y239)
- Sequence (Q9Y239 whole entry, the tested form may be a part): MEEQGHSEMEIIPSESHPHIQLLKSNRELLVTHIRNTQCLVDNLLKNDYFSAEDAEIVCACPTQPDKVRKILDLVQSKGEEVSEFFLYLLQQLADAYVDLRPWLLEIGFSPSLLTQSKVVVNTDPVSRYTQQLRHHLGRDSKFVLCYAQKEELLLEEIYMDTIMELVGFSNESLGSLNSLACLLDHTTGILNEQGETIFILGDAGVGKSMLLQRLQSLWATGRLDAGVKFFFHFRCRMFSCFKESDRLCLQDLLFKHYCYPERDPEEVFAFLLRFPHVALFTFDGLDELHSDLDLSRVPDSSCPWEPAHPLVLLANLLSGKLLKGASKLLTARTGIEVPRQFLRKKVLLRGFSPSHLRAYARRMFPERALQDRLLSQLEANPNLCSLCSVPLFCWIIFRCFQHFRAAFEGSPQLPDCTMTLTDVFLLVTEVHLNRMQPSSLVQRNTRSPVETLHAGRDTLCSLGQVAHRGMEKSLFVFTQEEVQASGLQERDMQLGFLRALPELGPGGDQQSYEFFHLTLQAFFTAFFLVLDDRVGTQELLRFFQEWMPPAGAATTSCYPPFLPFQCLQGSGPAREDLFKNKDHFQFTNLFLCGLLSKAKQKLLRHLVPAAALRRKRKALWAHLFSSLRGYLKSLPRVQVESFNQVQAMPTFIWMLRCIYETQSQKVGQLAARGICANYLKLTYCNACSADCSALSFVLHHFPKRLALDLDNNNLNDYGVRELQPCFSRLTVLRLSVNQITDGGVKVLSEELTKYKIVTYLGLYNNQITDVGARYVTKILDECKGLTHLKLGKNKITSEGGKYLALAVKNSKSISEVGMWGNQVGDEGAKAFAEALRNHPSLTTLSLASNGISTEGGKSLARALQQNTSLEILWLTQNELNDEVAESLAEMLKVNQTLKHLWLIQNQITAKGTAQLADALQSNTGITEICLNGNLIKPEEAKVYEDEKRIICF
- MEASUREMENT_NOTES: blockers of NOD1 pathway activity – revised, SAR follow-up (AID 2333)
- Assay type: functional
Activity calls are given as the source filed them.
Classes used: true for active, false for inactive

1) Cc1ccc(S(=O)(=O)n2c(=S)[nH]c3cc(C)ccc32)cc1
false
2) Nc1nc2ccccc2n1CCOc1ccc(Cl)cc1
true
3) CSc1ccc(NC(=O)c2ccc(CN3CCc4ccccc43)cc2)cc1
false
4) O=C(COc1ccc2c(-c3ccccc3)cc(=O)oc2c1)Nc1cccnc1
true
5) Oc1ccc(N=Nc2ccccc2C(F)(F)F)c2cccnc12
false
6) N#Cc1cccc(NC(=O)CSc2nc3scc(-c4ccccc4)c3c(=O)[nH]2)c1
false

---

- MEASUREMENT_NOTES: fluconazole-exposed Candida albicans growth modulators – fluorescence, retest, confirmation (AID 2467)
- Type: functional, cell-based
Activity calls are given as the source filed them.
VALUE_TYPE: EC50

1. CCc1nnc(NC(=O)CN2CCN(c3nc(-c4ccccc4)cs3)CC2)s1
1180 nM (active)
2. Oc1ccc(N=Nc2ccccc2C(F)(F)F)c2cccnc12
1570 nM (active)
3. O=C(Nc1ccccc1O)c1ccccc1O
6430 nM (active)
4. CCN=C(S)NNC(=O)c1cc(-c2ccccc2C)nc2ccccc12
931 nM (active)

---

- SYSTEM_UNDER_TEST: Coagulation factor XII (Homo sapiens, UniProt P00748);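 note: activated factor XIIa alpha cleaving a fluorogenic AMC peptide substrate; inhibitor potency from loss of enzyme activity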
- Assay type: functional
Calls of active or inactive are those of the source.
Classes used: active, inactive

1. C=CCn1c(SCC(=O)Nc2cccnc2Cl)nnc1-c1ccc(Cl)cc1
inactive
2. Cc1ncc(CN2CCCC(C(=O)c3ccc(C(C)(C)C)cc3)C2)s1 (centres undefined)
inactive
3. Cc1cc(C)c(C)c(S(=O)(=O)ON2C(=O)c3ccccc3C2=O)c1C
active
4. CC(=O)Nc1ccc(S(=O)(=O)NCCNc2ccccc2[N+](=O)[O-])cc1
inactive

---

- SYSTEM_UNDER_TEST: Corticotropin-releasing factor receptor 2/Corticotropin-releasing factor-binding protein (Homo sapiens, UniProt P24387+Q13324)
- Sequence (Q13324 whole entry): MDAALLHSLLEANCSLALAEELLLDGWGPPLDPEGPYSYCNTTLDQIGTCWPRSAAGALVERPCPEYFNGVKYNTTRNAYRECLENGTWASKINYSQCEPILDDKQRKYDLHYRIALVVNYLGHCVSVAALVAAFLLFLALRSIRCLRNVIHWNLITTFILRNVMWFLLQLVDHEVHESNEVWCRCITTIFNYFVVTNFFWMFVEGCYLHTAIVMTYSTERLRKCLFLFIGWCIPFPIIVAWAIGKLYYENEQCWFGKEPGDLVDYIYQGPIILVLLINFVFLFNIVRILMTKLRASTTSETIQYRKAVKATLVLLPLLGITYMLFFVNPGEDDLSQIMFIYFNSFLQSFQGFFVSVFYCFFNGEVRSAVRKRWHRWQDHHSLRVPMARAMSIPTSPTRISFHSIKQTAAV
- Sequence (P24387 whole entry): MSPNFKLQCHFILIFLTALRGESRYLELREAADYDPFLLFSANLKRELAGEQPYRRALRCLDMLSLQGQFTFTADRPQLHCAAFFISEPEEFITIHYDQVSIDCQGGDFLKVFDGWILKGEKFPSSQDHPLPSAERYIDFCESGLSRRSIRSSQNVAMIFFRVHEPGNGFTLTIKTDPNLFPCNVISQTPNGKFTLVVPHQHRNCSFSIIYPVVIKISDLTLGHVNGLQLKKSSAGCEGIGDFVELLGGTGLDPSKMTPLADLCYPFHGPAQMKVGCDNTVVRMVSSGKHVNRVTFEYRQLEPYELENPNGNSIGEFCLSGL
- MEASUREMENT_NOTES: activators of CRF receptor 2 with binding protein – uHTS hits, confirmation (AID 602473)
- Format: functional
- STUDY_CONDITIONS: read-out: EC50_Mean
Calls of active or inactive are those of the source.
Possible outcomes: 1 (active), 0 (inactive)

1) O=C(Nc1nnc(S(=O)(=O)Nc2ccccc2)s1)c1ccccc1Cl
0
2) O=C(O)c1ccc(COc2ccccc2C=C2C(=O)c3ccccc3C2=O)cc1
1
3) CCOc1ccc(/C=N/NC(=O)CN2CCCCCCC2)cc1
0
4) Cc1cc(C)n2nc(/C(C#N)=C/c3ccccc3)c(C#N)c2n1
0
5) Cc1cc(F)ccc1S(=O)(=O)NCC1CC2CCC1C2 (stereo unspecified)
0
6) Cc1ccc(N(C(=O)Cn2nnc(-c3ccccc3)n2)C(C(=O)NC2CCCCC2)c2ccccn2)cc1C (stereo unspecified)
0

---

- MEASUREMENT_NOTES: blockade of melanocortin 4 receptor signaling – cell-based, plate reader, cherry pick, counter-screen for LGR2 antagonist project, dose response (AID 743444);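 note: transfected HEK 293 cells stimulated with alpha-MSH peptide; potency of inhibitors of the alpha-MSH evoked signal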
- Type: functional
Active and inactive are the calls of the source.
This listing pairs compounds with measured AC50.
VALUE_TYPE: AC50

1) COc1ccc(-c2cc3nc(CCl)nc(O)c3s2)cc1
8.71 µM (active)
2) Cc1ccc2[nH]c(-c3ccccn3)nc2c1
6.67 µM (active)
3) COc1ccc(S(=O)(=O)Nc2ccc3c(c2)C(=O)N([C@@H](C)CO)C[C@H](C)[C@@H](CN(C)C(=O)Nc2cccc4ccccc24)OCCCC[C@H](C)O3)cc1
8.72 µM (active)
4) N#C[C@@H]1[C@H](c2ccc(C#Cc3cccc(F)c3)cc2)[C@@H](CO)N1C(=O)C1CCCC1
8.4 µM (active)

---

Read-out record for UniProt:P05177: AC50
Sequence (P05177 whole entry): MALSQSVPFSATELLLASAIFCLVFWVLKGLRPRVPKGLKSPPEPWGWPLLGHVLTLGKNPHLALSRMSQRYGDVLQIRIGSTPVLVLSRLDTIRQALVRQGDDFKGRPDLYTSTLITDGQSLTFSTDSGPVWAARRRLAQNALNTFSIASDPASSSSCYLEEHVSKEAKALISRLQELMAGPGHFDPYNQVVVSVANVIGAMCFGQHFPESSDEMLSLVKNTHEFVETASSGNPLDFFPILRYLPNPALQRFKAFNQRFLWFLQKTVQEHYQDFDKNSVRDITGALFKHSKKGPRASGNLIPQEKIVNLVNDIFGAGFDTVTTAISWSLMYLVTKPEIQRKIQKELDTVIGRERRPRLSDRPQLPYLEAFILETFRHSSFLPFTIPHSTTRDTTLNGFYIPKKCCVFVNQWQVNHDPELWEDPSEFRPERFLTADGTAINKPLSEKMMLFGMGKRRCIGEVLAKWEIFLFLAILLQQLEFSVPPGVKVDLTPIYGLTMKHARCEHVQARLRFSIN
VALUE_TYPE: AC50

1. Cc1ccccc1C(=O)NC(NCc1ccco1)C(Cl)(Cl)Cl (stereo unspecified)
14.1 µM (inconclusive)
2. Cc1ccc(-c2nc3ccccc3s2)cc1NC(=O)c1cc(-n2cnnc2)ccc1Cl
2.24 µM (inconclusive)
3. COc1ccc(OC)c2nc(O)c(CCNC(=O)C3CCCCC3)cc12
20 µM (inconclusive)
4. COc1ccc(/C=C2/SC(N/N=C3\CC4CCC3(C)C4(C)C)=NC2=O)cc1 (stereo unspecified)
14.1 µM (inconclusive)
5. CN(C)CCCN1c2ccc(O)cc2Sc2ccc(Cl)cc21 [7-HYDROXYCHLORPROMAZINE]
0.631 µM (inconclusive)
6. O=C(CC(=O)N/N=C\c1c(Cl)cccc1Cl)NCc1ccccc1
14.1 µM (inconclusive)
7. COc1cccc(/C=N/NC(=O)CSc2nnc(C)n2-c2ccccc2)c1O
35.5 µM (inconclusive)
8. Cc1[nH]c2ccccc2c1CCNC(=O)c1ccc2c(c1[N+](=O)[O-])C(=O)c1ccccc1C2=O
4.47 µM (inconclusive)
9. COC(=O)[C@@]1(Cc2ccc(F)cc2)[C@H]2c3cc(C(=O)N(C)C)n(Cc4ccc(S(C)(=O)=O)cc4)c3C[C@H]2CN1C(=O)c1ccccc1
25.1 µM (inconclusive)
10. C[C@@H](C(=O)NCCc1c[nH]c2ccccc12)[C@H]1C[C@]1(C)[C@H](NC(=O)OCc1ccccc1)c1ccccc1
15.8 µM (inconclusive)
11. CCn1c(=O)[nH]c2ccccc21
31.6 µM (inconclusive)
12. O=C(NCc1ccc2c(c1)OCO2)C1CC(=O)N(C2CCCC2)C1 (stereo unspecified)
17.8 µM (inconclusive)
13. COC(=O)[C@@]1(Cc2ccc(F)cc2)[C@H]2c3cc(C(=O)N(C)C)n(Cc4ccc(Cl)c(C(F)(F)F)c4)c3C[C@H]2CN1C(=O)c1ccccc1
15.8 µM (inconclusive)
14. COCCNC(=O)/C(C#N)=C/c1ccc(-c2ccc(OC)cc2[N+](=O)[O-])o1
2 µM (inconclusive)
15. COc1cc(OC)nc(NC(C)=O)n1
28.2 µM (inconclusive)
16. COc1ccc(-n2c(=O)c(-c3ccc(F)c(F)c3)nc3cncnc32)cc1
2.51 µM (inconclusive)

---

- SYSTEM_UNDER_TEST: Mannose-6-phosphate isomerase (Homo sapiens, UniProt P34949)
- Sequence (P34949 whole entry): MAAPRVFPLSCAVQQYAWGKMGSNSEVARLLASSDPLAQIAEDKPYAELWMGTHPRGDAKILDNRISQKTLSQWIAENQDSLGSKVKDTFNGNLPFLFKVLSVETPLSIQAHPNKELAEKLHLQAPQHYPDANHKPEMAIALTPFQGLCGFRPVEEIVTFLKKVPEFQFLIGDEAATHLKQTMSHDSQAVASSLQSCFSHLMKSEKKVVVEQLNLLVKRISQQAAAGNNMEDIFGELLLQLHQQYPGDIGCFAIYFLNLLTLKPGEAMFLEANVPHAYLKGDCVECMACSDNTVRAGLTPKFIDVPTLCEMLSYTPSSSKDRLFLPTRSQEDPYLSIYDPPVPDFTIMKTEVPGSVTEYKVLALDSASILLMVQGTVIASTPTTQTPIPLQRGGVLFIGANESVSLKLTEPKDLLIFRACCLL
- MEASUREMENT_NOTES: MPI inhibition at elevated mannose 6-phosphate – biochemical, fluorescence intensity, high mannose 6-phosphate, primary screen (AID 1220)
The source made the active and inactive calls.
This section presents molecules with their documented IC50 values.
VALUE_TYPE: IC50

1. CC(=O)C(C(C)=O)c1c(Cl)c(O)c(O)c2c(C(=O)c3ccccc3)coc12
> 50 µM (not active)
2. CCN(Cc1ccncc1)Cc1c(O)ccc2cc(Br)ccc12
> 50 µM (not active)
3. Cc1cc(C)c(C(N)=O)c(Nc2cccc3ccccc23)n1
> 50 µM (not active)
4. COc1cc(CN2CCN(c3ccccc3F)CC2)c([N+](=O)[O-])cc1OC
> 50 µM (not active)
5. Cc1ccc(NC(=O)CN(C)C(=O)COc2cccc3cccnc23)cc1
44.5 µM (active)

---

- SYSTEM_UNDER_TEST: Aminopeptidase N (Plasmodium falciparum FcB1/Columbia, UniProt O96935)
- Sequence (O96935 whole entry): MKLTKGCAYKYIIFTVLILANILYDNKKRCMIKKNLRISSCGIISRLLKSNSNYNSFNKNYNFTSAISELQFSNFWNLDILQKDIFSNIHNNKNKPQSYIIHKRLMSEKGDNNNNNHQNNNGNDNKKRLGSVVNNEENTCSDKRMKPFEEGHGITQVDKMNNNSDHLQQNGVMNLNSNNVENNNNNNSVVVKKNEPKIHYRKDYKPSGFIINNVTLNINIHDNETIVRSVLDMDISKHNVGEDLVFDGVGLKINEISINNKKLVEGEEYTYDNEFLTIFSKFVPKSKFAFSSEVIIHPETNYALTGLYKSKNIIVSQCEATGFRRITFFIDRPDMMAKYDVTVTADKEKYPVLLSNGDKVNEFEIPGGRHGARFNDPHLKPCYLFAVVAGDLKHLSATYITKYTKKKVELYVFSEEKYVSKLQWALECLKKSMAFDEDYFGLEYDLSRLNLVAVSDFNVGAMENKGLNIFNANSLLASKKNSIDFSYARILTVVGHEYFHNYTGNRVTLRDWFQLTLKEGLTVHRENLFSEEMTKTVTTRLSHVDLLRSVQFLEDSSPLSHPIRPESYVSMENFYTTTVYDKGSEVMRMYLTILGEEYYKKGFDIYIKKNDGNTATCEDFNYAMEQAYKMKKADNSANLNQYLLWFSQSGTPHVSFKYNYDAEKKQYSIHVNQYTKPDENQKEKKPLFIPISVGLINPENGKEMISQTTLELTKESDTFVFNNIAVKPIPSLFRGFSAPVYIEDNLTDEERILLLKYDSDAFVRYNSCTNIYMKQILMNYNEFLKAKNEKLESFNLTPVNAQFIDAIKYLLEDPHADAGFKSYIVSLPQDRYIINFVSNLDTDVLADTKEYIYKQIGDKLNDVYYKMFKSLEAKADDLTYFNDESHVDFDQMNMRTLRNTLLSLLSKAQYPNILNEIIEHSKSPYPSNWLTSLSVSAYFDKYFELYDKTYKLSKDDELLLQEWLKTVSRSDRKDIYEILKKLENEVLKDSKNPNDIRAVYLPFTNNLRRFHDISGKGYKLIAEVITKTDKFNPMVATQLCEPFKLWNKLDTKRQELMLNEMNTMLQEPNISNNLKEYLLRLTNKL
- MEASUREMENT_NOTES: malaria alanyl aminopeptidase activity blockers – biochemical, fluorogenic H-Leu-NHMec substrate, 1536-well (AID 1445)
- Design: species or system Plasmodium falciparum 3D7, 3D7
Active and inactive are the calls of the source.
IC50 reference
VALUE_TYPE: IC50

1) Cc1ccc(S(=O)(=O)/N=C2/C=C(C3C(=O)CC(C)(C)CC3=O)C(=O)c3ccccc32)cc1
34.5 µM (active)
2) O=C(O)c1ccc(COc2ccccc2C=C2C(=O)c3ccccc3C2=O)cc1
74.9 µM (active)
3) COc1ccc(S(=O)(=O)NC2=NC(=O)/C(=C\c3cc(OC)c(OC)cc3[N+](=O)[O-])S2)cc1
22.4 µM (active)
4) CCCCCNC(=O)c1ccc2c(=O)[nH]c3c(C(=O)NCC4CCCO4)sc(=S)n3c2c1 (centres undefined)
37 µM (active)
